# System: HOP-62 NSCLC
# Procedure details: NCI-60 one-dose screen, 48 h (100 = growth as untreated, 0 = no growth, -100 = all killed)
# Setup conditions: 10 µM unless noted
The panel holds about 83,000 compounds, 20% with a hit somewhere; the sample as a whole holds those more often. The source made the active and inactive calls. Rule for the calls: active = growth percent below 10; inactive = the rest.
Reported endpoint: growth

{"Molecule smiles": "CC(=O)Nc1ccc(S(=O)(=O)Cl)cc1", "Reported endpoint": "growth", "Readout value": "102% (inactive)"}
{"Molecule smiles": "CN1C(=O)C(=Cc2coc3ccc(Br)cc3c2=O)C(=O)N(C)C1=O", "Reported endpoint": "growth", "Readout value": "94.5% (inactive)"}
{"Molecule smiles": "Br/C(=N\\Nc1nn[nH]n1)c1ccccc1", "Reported endpoint": "growth", "Readout value": "98% (inactive)"}
{"Molecule smiles": "CC1=C(C)C[C@]2(C(=O)O[C@H]3CCCC[C@@H]32)[S@](=O)C1", "Reported endpoint": "growth", "Readout value": "106% (inactive)"}
{"Molecule smiles": "Cc1c(C(N)=O)sc2c1c(=O)n(Cc1ccccc1)c1nnc(S(C)(=O)=O)n21", "Reported endpoint": "growth", "Readout value": "78.8% (inactive)"}
{"Molecule smiles": "N#Cc1c2ncccc2c2nnc3cc(Cl)c(Cl)cc3n12", "Reported endpoint": "growth", "Readout value": "82.7% (inactive)"}
{"Molecule smiles": "CCCCN(CCCC)c1ccc(C(=O)O)cc1", "Reported endpoint": "growth", "Readout value": "98% (inactive)"}
{"Molecule smiles": "Nc1nc2cc(O)ccc2n2cc3c(F)cccc3c12", "Reported endpoint": "growth", "Readout value": "24.9% (inactive)"}
{"Molecule smiles": "O=C(CCl)c1ccc2c(c1)CCCC2", "Reported endpoint": "growth", "Readout value": "107% (inactive)"}
{"Molecule smiles": "C[n+]1c2ccccc2c(Nc2ccc(NS(=O)(=O)CCCCN=C(N)N)cc2)c2ccc(N)cc21", "Reported endpoint": "growth", "Readout value": "32.2% (inactive)"}
{"Molecule smiles": "CCCNC(=O)Oc1ccc(/C(=C(/CC)Cc2ccccc2)c2ccc(OCCN(CC)CC)cc2)cc1", "Reported endpoint": "growth", "Readout value": "84.2% (inactive)"}
{"Molecule smiles": "CSc1nc(N)n2nccc2n1", "Reported endpoint": "growth", "Readout value": "89.6% (inactive)"}

From: PubChem BioAssay (NCI)
